- system: human adenosine A2A receptor (Homo sapiens, UniProt P29274)
- Construct: expressed in transfected cells; host or cells: HEK293 cells infected with BacMam
- Sequence (P29274 whole entry): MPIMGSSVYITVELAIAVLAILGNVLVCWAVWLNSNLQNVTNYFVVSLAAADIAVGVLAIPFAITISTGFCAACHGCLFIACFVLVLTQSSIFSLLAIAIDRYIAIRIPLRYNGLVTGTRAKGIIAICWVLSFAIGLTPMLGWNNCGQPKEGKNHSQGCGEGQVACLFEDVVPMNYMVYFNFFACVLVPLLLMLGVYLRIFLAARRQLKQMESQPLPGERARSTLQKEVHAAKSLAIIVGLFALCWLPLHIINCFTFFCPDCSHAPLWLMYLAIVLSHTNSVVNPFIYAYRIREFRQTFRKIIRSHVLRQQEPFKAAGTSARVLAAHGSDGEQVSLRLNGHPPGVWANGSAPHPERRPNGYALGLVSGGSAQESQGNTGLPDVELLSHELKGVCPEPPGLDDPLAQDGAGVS
- assayText: Inhibition binding assay, human adenosine A2A receptor membranes, [3H]ZM241385
- details: 1 nM [3H]ZM241385, HEK293-hA2A membranes, 25° C., 1 h; IC50 converted to Ki with Cheng-Prusoff; read-out: A2A pKi (converted)
quantityName: Ki (nM)

INSERT INTO results (compound, endpointvalue) VALUES
  ('Cc1cc(-c2c(-c3ccccc3)nc(N)n3c(=O)n(CC4CCCOC4)nc23)cc(CO)n1 (single isomer, unassigned) [Example 2-92-iso-2]', 1.26);

(I) Cc1cc(-c2c(-c3ccccc3)nc(N)n3c(=O)n(CC4(Cc5ccccc5)CCNCC4)nc23)cc(C)n1
(II) Cc1cc(-c2c(-c3ccccc3)nc(N)n3c(=O)n(CC(C)C)nc23)cc(C)[n+]1[O-]
(III) Nc1nc(-c2ccccc2)c(-c2cc(Cl)nc(CO)c2)c2nn(Cc3ccc(F)cn3)c(=O)n12
(IV) Cc1cc(-c2c(-c3ccccc3)nc(N)n3c(=O)n(CCC#N)nc23)cc(C)n1
Order the records, beginning with the lowest Ki and ending with the highest. # format: label list in the order the request specifies
I, III, II, IV
(I: 0.501 nM, III: 0.794 nM, II: 10 nM, IV: 15.8 nM)
